Tested on: SRS-A release from lung fragments
measurement_description: Inhibition of SRS-A release from sensitized guinea pig lung fragments
Assay type: cell-based, guinea pig (Hartley strain)
test_context: Cavia porcellus, Table 2, dose 30 μM; read-out: Inhibition ratio (%) SRS-A
reported_endpoint: inhibition at 30 µM (%)
Give your result in % as a bare value.

Provide the documented inhibition at 30 µM with SRS-A release from lung fragments as the system for COC1=CC(=O)C(OC)=C(CCCCCCCCCC2=C(OC)C(=O)C=C(OC)C2=O)C1=O [Test Compound No. 13] 43.9

Give the reported inhibition at 30 µM for COC1=C(C)C(=O)C(OC)=C(CCCCCC2=C(OC)C(=O)C(C)=C(OC)C2=O)C1=O [Test Compound No. 17] (system: SRS-A release from lung fragments). 83.9

For the record COC1=C(CCO)C(=O)C(OC)=C(CCCCCC2=C(OC)C(=O)C(CCO)=C(OC)C2=O)C1=O [Test Compound No. 19] , what value of inhibition at 30 µM is listed for SRS-A release from lung fragments? 76.6
